Task for the reader: assign each of the following compounds its reported GI50.
# System: A2780
# Assay Comment: Sulforhodamine B (SRB) growth inhibition assay
# Format: cell-based, Human
# Test Context: SRB assay, cells exposed for 24 h, read-out: GI50 values (μM) A2780
Give bare numbers, in µM.

Completed entries (count: 3):
Compound	GI50 / µM
COCCOCCOCCOP(=O)(O)OC[C@H]1O[C@@H](n2ccc(N)nc2=O)C(F)(F)[C@@H]1O.Cl [Gemcitabine Mono (mPEG3), phosphate hydrochloride]	0.15
COCCOCCOCCOCCOCCOCCOCCOP(=O)(O)OC[C@H]1O[C@@H](n2cc(F)c(=O)[nH]c2=O)C[C@@H]1O [Floxuridine Mono (mPEG7)]	2.3
COCCOCCOCCOP(=O)(O)OC[C@H]1O[C@@H](n2cc(F)c(=O)[nH]c2=O)C[C@@H]1O [Floxuridine Mono (mPEG3)]	2.1

Now look at this entry.
Request - read-out GI50 | tested on A2780 | compound COCCOCCOCCOCCOCCOCCOCCOP(=O)(O)OC[C@H]1O[C@@H](n2ccc(N)nc2=O)C(F)(F)[C@@H]1O.Cl [Gemcitabine Mono (mPEG7), phosphate hydrochloride] 0.15
